Measured logD of individual entries
Assay: method code SF-HPLC, from DOI: 10.1080/10826079308019563
Settings: pH 11.0

compound	logD
NC1=NCC(CN2CCN(c3ccc(Cl)c(Cl)c3)CC2)O1 (stereo not given)	2.4
NC1=NCC(CN2CCN(c3cccc(Cl)c3)CC2)O1 (stereo not given)	1.83
NC1=NCC(CN2CCN(c3ccccn3)CC2)O1 (stereo not given)	0.48
NC1=NCC(CN2CCN(c3ccc(F)cc3)CC2)O1 (stereo not given)	1
CCOc1ccccc1N1CCN(CC2CN=C(N)O2)CC1 (stereo not given)	1.21
COc1ccc(N2CCN(CC3CN=C(N)O3)CC2)cc1 (stereo not given)	0.68
Cc1cccc(N2CCN(CC3CN=C(N)O3)CC2)c1C (stereo not given)	2.19
COc1cccc(N2CCN(CC3CN=C(N)O3)CC2)c1 (stereo not given)	0.87
NC1=NCC(CN2CCN(c3cccc(C(F)(F)F)c3)CC2)O1 (stereo not given)	2.21
NC1=NCC(CN2CCN(c3ccccc3)CC2)O1 (stereo not given)	0.85
NC1=NCC(CN2CCN(c3ccc(Cl)cc3)CC2)O1 (stereo not given)	1.71
NC1=NCC(CN2CCN(c3ccccc3Cl)CC2)O1 (stereo not given)	1.87
NC1=NCC(CN2CCN(c3ncccn3)CC2)O1 (stereo not given)	0.21
COc1ccccc1N1CCN(CC2CN=C(N)O2)CC1 (stereo not given)	0.76
NC1=NCC(CN2CCN(c3ccc(C(F)(F)F)cc3)CC2)O1 (stereo not given)	1.23
